This section presents compounds with their documented melting point values.

Using the record for C[Si](C)(C)C#Cc1ccc(C=Cc2ccc(C#C[Si](C)(C)C)cc2)cc1 , report its melting point. 207 to 208 °C

And for Nc1c(C(=O)c2cccc(S(N)(=O)=O)c2)[nH]c2cc(Cl)ccc12 ? 125 to 127 °C

And for Cc1ccc(C2c3c(C)c(N4C(=O)c5cc(Cl)c(Cl)cc5C4=O)c(C)c(C)c3OC2(C)C)cc1 (stereo not given) ? 157 to 159 °C

And for CONC(=O)Cc1c(C)n(C(=O)c2ccc(Cl)cc2)c2ccc(OC)cc12 ? 184 to 185 °C

And for Nc1nc2c(ncn2C(c2ccccc2)(c2ccccc2)c2ccccc2)c(=O)[nH]1 ? 268 to 270 °C

And for CCOC(=O)c1cn(C2CC2)c2c(F)c(Br)c(F)c(F)c2c1=O ? 187 to 189 °C

And for CC(C)(C)c1cc(C(=O)NN(C(=O)O)C(C)(C)C)cc(C(C)(C)C)c1O ? 196 °C

And for CCC(O)c1cc2cc(OCC(=O)O)c(Cl)c(Cl)c2s1 (stereo not given) ? 156 to 158 °C

---

This section presents compounds with their documented melting point values.

Completed entries (count: 5):
Using the record for O=C1CCCC2CN(C(Cc3ccccc3)=NCc3cccs3)CC12 (stereo not given) , report its melting point. 114 °C

And for Cc1cc(F)c(Nc2ncnc3cc(O)ccc23)cc1O ? 274 to 278 °C

And for COC(=O)C(=NO)c1nc2c(C)c(Cl)ccc2oc1=O ? 190 to 191 °C

And for CC(C)C(=O)Nc1nc(CN2CCN(C(c3ccccc3)c3ccccc3)CC2)cs1 ? 132 to 140 °C

And for O=C1c2ccc(OS(=O)(=O)C(F)(F)F)cc2CCC1Cc1ccccc1 (stereo not given) ? 52 to 53.7 °C

Further cases:
Using the record for CCC(C)c1cc(C=O)cc(C(C)CC)c1O (stereo not given) , report its melting point. 65 to 68 °C

And for O=C1CCc2c(-c3ccncc3)sc(-c3ccncc3)c21 ? 168 to 170 °C

And for NC(=O)NN=Cc1ccc(Oc2ccncc2)cc1 ? 212 to 213 °C

And for COCCCCN1C(=O)N(c2ccc(C#N)c(C(F)(F)F)c2)C(=O)C1(C)C ? 80 to 81 °C

And for CC(C)(C)[Si](C)(C)N1C(=O)C(C(Cc2ccccc2)OC=O)C1SC(c1ccccc1)(c1ccccc1)c1ccccc1 (stereo not given) ? 172 to 173 °C

---

This section presents compounds with their documented melting point values.

Completed entries (count: 5):
Using the record for CCOC(=O)C(C)(C)NC(=O)c1c(Cl)c2cc(Oc3ccc(C(F)(F)F)cc3)ccc2n1-c1ccc(OC(C)C)cc1 , report its melting point. 135 to 137 °C

And for O=c1[nH]c2cscc2c(=O)n1CCN1CCN(c2cccc(Cl)c2)CC1 ? 207 to 208 °C

And for Cc1ccc(S(=O)(=O)N2C3=NC(C)(C)N(C)C(=O)N3c3ccccc32)cc1 ? 147 to 149 °C

And for O=C(CCc1c(C(=O)OCCN2CCOCC2)[nH]c2cc(Cl)cc(Cl)c12)OCCN1CCOCC1 ? 110 to 112 °C

And for CS(=O)(=O)c1ccc(-c2nc(C(F)(F)F)[nH]c2-c2ccc(F)c(F)c2)cc1 ? 249 to 252 °C

Further cases:
Using the record for C[C@H]1CCCC(C)(C)[C@@H]1[C@H](O)c1ccc2c(c1)CCN(C(N)=O)C2 , report its melting point. 99.1 to 101 °C

And for Nc1ccc(NC(=O)[C@@H](NC(=O)c2ccc(C(=O)O)cc2)c2ccccc2)cc1 ? 151 °C

And for COCOc1cc(OCOC)c2c(=S)cc(C)oc2c1 ? 109 to 110 °C

And for CCN1c2ncc(CCc3cccc(N=[N+]=[N-])c3)cc2C(=O)N(C)c2ccc(Cl)nc21 ? 104 to 105 °C

---

This section presents compounds with their documented melting point values.

Completed entries (count: 4):
Using the record for O=Cc1cn(-c2ccc(Cl)cc2)nc1-c1ccc([N+](=O)[O-])o1 , report its melting point. 192 to 193 °C

And for CCOC(=O)c1cc(=O)c2c(OCC(O)COc3ccc(CC)cc3)cccc2o1 (centres undefined) ? 80 to 85 °C

And for O=S(=O)(Nc1ccc2c(OCc3coc(-c4ccc(Cl)cc4)n3)cccc2c1)C(F)(F)F ? 198 to 200 °C

And for CCCCCCCCOC(=O)NCCCCCCNC(=O)OCCCCCCCC ? 106 to 107 °C

Further cases:
Using the record for O=c1c2cccnc2n(-c2cccc([N+](=O)[O-])c2)c(=O)n1Cc1ccccc1 , report its melting point. 219 to 220 °C

And for CC(C)(C)CC(C)(C)NCC(=O)N1CC2C(C1)C2Nc1ncc2cc(-c3ccccc3Cl)c(=O)n(C3CC3)c2n1 (centres undefined) ? 218 to 220 °C

And for CS(=O)(=O)Nc1ccccc1SCc1ncon1 ? 106 °C

And for CCOC(=O)C=Cc1cc(C=CC(=O)OCC)cc(CO)c1 ? 68 to 69.5 °C

And for N#CC1=C2N(Cc3ccc(Cl)nc3)CCN2C2CCC1O2 (centres undefined) ? 125 to 127 °C

---

METRIC_NAME: melting point (°C)
The response must be a number in °C with no trailing unit.

Using the record for CCCCCCCCCCCCCCCCCCN(C(=O)CCCCCCCCCCC)C1O[C@H](CO)[C@@H](O)[C@H](O)[C@H]1NC(=O)CCCCCCCCCCC (stereo not given in full) , report its melting point. 86

Let us move to another entry and its melting point.
Using the record for CC(=O)c1c(S(=O)(=O)C(F)(F)F)c(C#N)nn1-c1c(Cl)cc(C(F)(F)F)cc1Cl , report its melting point. 161

---

This section presents compounds with their documented melting point values.

Completed entries (count: 2):
Using the record for Cc1ccc(Nc2ccc(Nc3ncnc4cc(-c5ccccc5)sc34)cc2)cc1 , report its melting point. 221 to 222 °C

And for CC(C)c1ccc(NC(=O)C2CCCc3c(OCc4ccccc4)cccc32)cc1 (centres undefined) ? 170 °C

Further cases:
Using the record for Cc1csc(-c2ccc(C(=O)Nc3ccc4cc(CN5CCCC5)cnc4c3C)cc2)c1 , report its melting point. 224 to 225 °C

---

This section presents compounds with their documented melting point values.

Completed entries (count: 3):
Using the record for COc1ccccc1C(=O)ON1C(=O)CCC1=O , report its melting point. 180 to 182 °C

And for CCN(CC)C(=O)c1ccc(-c2ccc(-c3ccccc3)c(-c3ccc4c(c3)C(C)(C)CCC4(C)C)c2)cc1 ? 113 °C

And for C(=C\c1nc(COc2ccc(CCCCn3cnc4ccccc43)cc2)co1)/c1ccccc1 ? 148 to 149 °C

Further cases:
Using the record for COc1ccc2cc(-c3ccc(OCC(O)CNC(C)C)c(OC)c3)n(C)c(=O)c2c1 (centres undefined) , report its melting point. 144 to 146 °C

And for CC#CCOc1ccc(S(=O)(=O)NC(Cc2c[nH]c3ccc(C)cc23)C(=O)O)cc1 (centres undefined) ? 45 to 46 °C

And for CN(C(=O)CN(C(=O)CNC(=O)OC(C)(C)C)c1ccccc1O)c1ccccc1 ? 185 to 188 °C

And for CCN(CC)CCn1c(=Nc2ccccc2)sc2ncccc2c1=O ? 61 to 62 °C

And for COc1cccc([C@H]2O[C@H](CC(=O)Nc3ncc(CCC(=O)O)s3)C(=O)N(CC(C)(C)CO)c3ccc(Cl)cc32)c1OC ? 203 to 205 °C

And for COc1cc(N)nc(Cl)n1 ? 186 °C

And for Cc1ccc(-c2cccc(C(=O)O)c2)cc1 ? 182 to 187 °C

And for Cc1cc(C)cc(NC(=O)c2ccc([N+](=O)[O-])cc2)c1 ? 206 to 210 °C

And for O=C(NCCCn1cnc(-c2ccccc2)c1)c1ccc(Br)cc1 ? 132 to 135 °C

And for COc1cccc2sc(Sc3ccc4c(c3)CC[C@H]3N(C)C(=O)CC[C@]43C)nc12 ? 200 to 205 °C

And for CC(=O)c1ccc(S(=O)(=O)NCC(=O)O)cc1 ? 213 to 215 °C

And for CC(=O)Nc1ccc(C#Cc2ccc(C3CC4CCCC(C3)N4C)nn2)cc1 (centres undefined) ? 270 to 271 °C

And for CCOc1ccc(C(=O)C2=C(O)C(=O)N(c3ccc(C)nn3)C2c2ccc(OC(F)(F)F)cc2)cc1 (centres undefined) ? 255 to 257 °C

---

This section presents compounds with their documented melting point values.
The response must be a number in °C with no trailing unit.

Using the record for CN(C)c1nc2sc3c(NCc4ccco4)ncnc3c2c2c1CC(C)(C)C2 , report its melting point. 217

And for CCOC(=O)c1c(O)c2cc(C)ccc2[nH]c1=O ? 242

And for CCOC(=O)/C=C/[C@H]1CC[C@H](c2ccc(C#N)cc2)CC1 ? 125

Further cases:
Using the record for COCC(=O)C1CCC2C3CCC4CC(=O)CCC4(C)C3CCC12C (stereo not given) , report its melting point. 156

Numbers sourced from a melting point compilation (Tetko et al.; mined from patent text by program, amines drawn as free bases though some values may be those of a salt).
